Origin of values: ChEMBL document CHEMBL1795256

test system: ACHN; experiment: Growth inhibition of human ACHN cells by sulforhodamine B assay; type: functional
Calls of active or inactive are those of the source. The calls are words filed in the database; no cut-off is given here.

{"structure-smiles-string": "CCCCCCCCCCCCCCCCCC(=O)N1CC[N+](C)(C)CC1", "target-system": "ACHN", "GI50": "2740 nM"}
{"structure-smiles-string": "CCCCCCCCCCCCCCCC(=O)N1CC[N+](C)(Cc2ccccc2)CC1", "target-system": "ACHN", "GI50": "1980 nM"}
{"structure-smiles-string": "CCCCCCCCCCCCCCCC(=O)N1CC[N+](C)(C)CC1", "target-system": "ACHN", "GI50": "1040 nM"}
{"structure-smiles-string": "CCCCCCCCCCCCCCCC(=O)N1CC[N+](C)(CC)CC1", "target-system": "ACHN", "GI50": "1890 nM"}
{"structure-smiles-string": "CCCCCCCCCCCCCCCCCCCCCCCC(=O)N1CC[N+](C)(C)CC1", "target-system": "ACHN", "GI50": "inactive"}
{"structure-smiles-string": "CCCCCCCCCCCCCCCCCCCC(=O)N1CC[N+](C)(C)CC1", "target-system": "ACHN", "GI50": "1390 nM"}
{"structure-smiles-string": "CCCCCCCCCCCC(=O)N1CC[N+](C)(C)CC1", "target-system": "ACHN", "GI50": "inactive"}
{"structure-smiles-string": "CCCCCCCCCCCCCCCCCCCCCC(=O)N1CC[N+](C)(C)CC1", "target-system": "ACHN", "GI50": "2390 nM"}
{"structure-smiles-string": "C=CC[N+]1(C)CCN(C(=O)CCCCCCCCCCCCCCC)CC1", "target-system": "ACHN", "GI50": "inactive"}
{"structure-smiles-string": "CCCCCCCCCCCCCCCCCCCCCC(=O)N1CC[N+](C)(CC)CC1", "target-system": "ACHN", "GI50": "1900 nM"}
